Biological target: T1, human GIP receptor (human, UniProt P48546 22-466)
T1 sequence (looked up): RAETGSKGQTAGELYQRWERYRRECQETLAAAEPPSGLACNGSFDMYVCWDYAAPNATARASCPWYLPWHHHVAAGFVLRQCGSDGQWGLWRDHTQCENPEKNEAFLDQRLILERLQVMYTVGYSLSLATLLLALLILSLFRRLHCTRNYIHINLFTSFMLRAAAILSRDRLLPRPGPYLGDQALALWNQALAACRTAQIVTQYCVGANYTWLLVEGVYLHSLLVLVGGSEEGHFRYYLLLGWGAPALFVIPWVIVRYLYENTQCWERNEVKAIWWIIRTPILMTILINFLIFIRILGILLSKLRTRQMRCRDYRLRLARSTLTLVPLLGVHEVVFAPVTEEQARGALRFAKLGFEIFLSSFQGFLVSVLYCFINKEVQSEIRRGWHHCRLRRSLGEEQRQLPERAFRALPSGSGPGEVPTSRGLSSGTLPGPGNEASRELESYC
Assay: cell-based or functional assay
Numbered stars: 1 amine (or outer) side, 2 acyl side, 3 side chain; on linkers, the order of the positions; unused ones are H or OH. Square brackets hold non-standard residues; d marks the D form. Side chains are listed from the residue outwards. * marks the point of attachment. C20 diacid = O=C(O)CCCCCCCCCCCCCCCCCCC(=O)*; C18 diacid = O=C(O)CCCCCCCCCCCCCCCCC(=O)*; C16 diacid = O=C(O)CCCCCCCCCCCCCCC(=O)*; γGlu = O=C(O)[C@H](CCC(=O)[*:2])N[*:1]; Chem. 28 = not defined here; Chem. 29 = not defined here; AEEA = NCCOCCOCC(=O)O; Aib = CC(C)(N)C(=O)O
Quick list: hGIPR Potency, 1% HSA, EC50 [pM] per entry.
The reply should be a number in pM, with the unit left off.

Worked cases, hGIPR Potency, 1% HSA, EC50 [pM] given:
[[record]]
binder = "Compound 101 (reading uncertain) peptide: H[Aib]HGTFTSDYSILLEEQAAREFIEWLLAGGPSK(Chem. 28)GAPPPSGGGEASHLSTAQTARLSAELHQLATLPRTETGSGSP-NH2"
value = 129

[[record]]
binder = "Compound 43 (reading uncertain) peptide: H[Aib]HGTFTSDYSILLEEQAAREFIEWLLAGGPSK(Chem. 28)GEASQLSTAALGRLSAELHRLADLPRTETGSGSP-NH2"
value = 186

[[record]]
binder = "Compound 100 (reading uncertain) peptide: H[Aib]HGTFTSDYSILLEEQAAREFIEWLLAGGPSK(Chem. 28)GAPPPSGGGEASHLSTAQTARLSAELHRLADLPRTETGSGSP-NH2"
value = 217

[[record]]
binder = "Compound 15 (peptide) peptide: H[Aib]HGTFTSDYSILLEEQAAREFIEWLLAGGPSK([AEEA-AEEA-γGlu-C18 diacid])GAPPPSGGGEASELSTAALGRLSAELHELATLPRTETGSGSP-NH2"
value = 356

[[record]]
binder = "Compound 85 (peptide) peptide: H[Aib]HGTFTSDYSILLEEQAAREFIEWLLAGGPSSGEASHLSTAQTQRLSAELHK([AEEA-AEEA-γGlu-C18 diacid])LATLPRTETGSGAP-NH2"
value = 14.6

[[record]]
binder = "Compound 79 (peptide) peptide: Y[Aib]EGTFTSDYSILLEEQAAREFIEWLLAGGPSSGEASHLSTAQTQRLSAK([AEEA-AEEA-γGlu-C18 diacid])LHRLATLPRTETGSGSP-NH2"
value = 24.7

[[record]]
binder = "Compound 93 (peptide) peptide: H[Aib]HGTFTSDYSILLEEQAAREFIEWLLAGGPSSGAGQAPGQAPLASHLSTAQTQRLSAELHK([AEEA-AEEA-γGlu-C18 diacid])LATLPRTETGSGSP-NH2"
value = 8.58

[[record]]
binder = "Compound 55 (reading uncertain) peptide: Y[Aib]EGTFTSDYSILLEEQAAREFIEWLLAGGPSSGAGQAPGQAPGASHLSTAQTQRLSAK(Chem. 28)LHRLATLPRTETGSGSP-NH2"
value = 10.3

[[record]]
binder = "Compound 12 (peptide) peptide: H[Aib]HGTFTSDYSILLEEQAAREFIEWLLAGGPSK([AEEA-AEEA-γGlu-C16 diacid])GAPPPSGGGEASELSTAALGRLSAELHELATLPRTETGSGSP-NH2"
value = 59.1

[[record]]
binder = "Compound 114 (peptide) peptide: Y[Aib]EGTFTSDYSILLEEQAAREFIEWLLAGGPSSGAGQAPGQAPGASHLSTAALARLSAELHK([AEEA-AEEA-γGlu-C18 diacid])LATLPRTETGSGSP-NH2"
value = 17.2


Prompt line: # query: hGIPR Potency, 1% HSA, EC50 [pM] of entry Compound 59 (peptide) peptide: Y[Aib]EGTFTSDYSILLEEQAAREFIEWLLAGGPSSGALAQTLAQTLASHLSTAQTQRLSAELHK([AEEA-AEEA-γGlu-C16 diacid])LATLPRTETGSGSP-NH2
Response line: 27.2

Prompt line: # query: hGIPR Potency, 1% HSA, EC50 [pM] of entry Compound 11 (reading uncertain) peptide: Y[Aib]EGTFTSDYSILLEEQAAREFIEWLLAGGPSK(Chem. 29)GEASELSTAALGRLSAELHELATLPRTETGSGSP-NH2
Response line: 58.3

Prompt line: # query: hGIPR Potency, 1% HSA, EC50 [pM] of entry Compound 83 (peptide) peptide: H[Aib]HGTFTSDYSILLEEQAAREFIEWLLAGGPSSGEASHLSTAQTQRLSAELHRLK([AEEA-AEEA-γGlu-C18 diacid])TLPRTETGSGSP-NH2
Response line: 13.6

Prompt line: # query: hGIPR Potency, 1% HSA, EC50 [pM] of entry Compound 38 (reading uncertain) peptide: Y[Aib]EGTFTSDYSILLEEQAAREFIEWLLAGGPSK(Chem. 28)GGQAPGQAPGEASHLSTAQTQRLSAELHELATLPRTETGSGSP-NH2
Response line: 336

Prompt line: # query: hGIPR Potency, 1% HSA, EC50 [pM] of entry Compound 53 (reading uncertain) peptide: Y[Aib]EGTFTSDYSILLEEQAAREFIEWLLAGGPSSGAGQAPGQAPGASHLSTAALGRLSAELHK(Chem. 28)LATLPRTETGSGSP-NH2
Response line: 14.6

Prompt line: # query: hGIPR Potency, 1% HSA, EC50 [pM] of entry Compound 94 (peptide) peptide: Y[Aib]EGTFTSDYSILLEEQAAREFIEWLLAGGPSRGEASHLSTAQTQRLSAELHK([AEEA-AEEA-γGlu-C20 diacid])LATLPRTETGSGSP-NH2
Response line: 29.5

The origin of these recorded values is patent US20260174875A1.
